Test system: breast cancer cells MCF7
EXPERIMENT_SUMMARY: Cancer cell growth, Alamar Blue assay, MCF7
Type: cell-based
CONDITION_NOTES: Homo sapiens; MCF7, 48 hr culture
Measured pIC50 by item
API: returns pIC50 as number; meaning -log10 of concentration in mol/L.

COMPOUND	EXPERIMENTAL_TARGET	pIC50
CC(=O)O[C@@]12CO[C@@H]1C[C@H](O)[C@@]1(C)C(=O)[C@H](O)C3=C(C)[C@@H](OC(=O)[C@H](O)[C@@H](NC(=O)OC(C)(C)C)c4ccccc4)C[C@@](O)([C@@H](OC(=O)c4ccccc4)[C@H]21)C3(C)C [Docetaxel]	breast cancer cells MCF7	5.20
Nc1ccn([C@@H]2O[C@H](CO)[C@@H](O)C2(F)F)c(=O)n1 [Gemcitabine]	breast cancer cells MCF7	4.32
COc1cccc2c1C(=O)c1c(O)c3c(c(O)c1C2=O)C[C@@](O)(C(=O)CO)C[C@@H]3O[C@H]1C[C@H](N)[C@H](O)[C@H](C)O1 [Doxorubicin]	breast cancer cells MCF7	5.70

**Q:** For the record CC(C)C[C@H](NC(=O)[C@H](CCc1ccccc1)NC(=O)CN1CCOCC1)C(=O)N[C@@H](Cc1ccccc1)C(=O)N[C@@H](CC(C)C)C(=O)[C@@]1(C)CO1 [Carfilzomib] , what value of pIC50 is listed for breast cancer cells MCF7?
**A:** 7.00

---

Tested on: cervical cancer cells Hela
EXPERIMENT_SUMMARY: Cancer cell growth, Alamar Blue assay, HeLa
Type: cell-based
CONDITION_NOTES: Homo sapiens, 48 hr culture
ASSAY_READOUT: IC50 (nM)
# number only, unit nM dropped from output

STRUCTURE_STRING	IC50, nM
CC(C)C[C@H](NC(=O)[C@H](CCc1ccccc1)NC(=O)CN1CCOCC1)C(=O)N[C@@H](Cc1ccccc1)C(=O)N[C@@H](CC(C)C)C(=O)[C@@]1(C)CO1	1300
CC(=O)O[C@@]12CO[C@@H]1C[C@H](O)[C@@]1(C)C(=O)[C@H](O)C3=C(C)[C@@H](OC(=O)[C@H](O)[C@@H](NC(=O)OC(C)(C)C)c4ccccc4)C[C@@](O)([C@@H](OC(=O)c4ccccc4)[C@H]21)C3(C)C	670
Nc1ccn([C@@H]2O[C@H](CO)[C@@H](O)C2(F)F)c(=O)n1	94000

Kindly review the next molecule as well.
**Q:** Item: COc1cccc2c1C(=O)c1c(O)c3c(c(O)c1C2=O)C[C@@](O)(C(=O)CO)C[C@@H]3O[C@H]1C[C@H](N)[C@H](O)[C@H](C)O1 Test system: cervical cancer cells Hela Read-out: IC50 Value: ?
**A:** 1700

---

Form field: Percentage of drugs remained un-degraded (one value per entry).
EXPERIMENT_SUMMARY: Degradation of drugs, standing in water for 48 hrs (HPLC or ICP MS)
Assay type: physicochemical
CONDITION_NOTES: standing for 48 hrs
# output: bare number, implied unit %

Below, 3 compounds whose answers are already recorded.
STRUCTURE_STRING	Percentage of drugs remained un-degraded [%]
Nc1ccn([C@@H]2O[C@H](CO)[C@@H](O)C2(F)F)c(=O)n1	58.8
CC(=O)O[C@@]12CO[C@@H]1C[C@H](O)[C@@]1(C)C(=O)[C@H](O)C3=C(C)[C@@H](OC(=O)[C@H](O)[C@@H](NC(=O)OC(C)(C)C)c4ccccc4)C[C@@](O)([C@@H](OC(=O)c4ccccc4)[C@H]21)C3(C)C	83.6
COc1cccc2c1C(=O)c1c(O)c3c(c(O)c1C2=O)C[C@@](O)(C(=O)CO)C[C@@H]3O[C@H]1C[C@H](N)[C@H](O)[C@H](C)O1	69.5

Kindly review the next compound as well.
**Q:** What does the data say about its Percentage of drugs remained un-degraded? Entry: CC(C)C[C@H](NC(=O)[C@H](CCc1ccccc1)NC(=O)CN1CCOCC1)C(=O)N[C@@H](Cc1ccccc1)C(=O)N[C@@H](CC(C)C)C(=O)[C@@]1(C)CO1
**A:** 48.5

Where do these numbers come from? They come from patent US20200289425A1.
